Molecular target: SLC19A1 (Homo sapiens, UniProt P41440)
Sequence (P41440 whole entry): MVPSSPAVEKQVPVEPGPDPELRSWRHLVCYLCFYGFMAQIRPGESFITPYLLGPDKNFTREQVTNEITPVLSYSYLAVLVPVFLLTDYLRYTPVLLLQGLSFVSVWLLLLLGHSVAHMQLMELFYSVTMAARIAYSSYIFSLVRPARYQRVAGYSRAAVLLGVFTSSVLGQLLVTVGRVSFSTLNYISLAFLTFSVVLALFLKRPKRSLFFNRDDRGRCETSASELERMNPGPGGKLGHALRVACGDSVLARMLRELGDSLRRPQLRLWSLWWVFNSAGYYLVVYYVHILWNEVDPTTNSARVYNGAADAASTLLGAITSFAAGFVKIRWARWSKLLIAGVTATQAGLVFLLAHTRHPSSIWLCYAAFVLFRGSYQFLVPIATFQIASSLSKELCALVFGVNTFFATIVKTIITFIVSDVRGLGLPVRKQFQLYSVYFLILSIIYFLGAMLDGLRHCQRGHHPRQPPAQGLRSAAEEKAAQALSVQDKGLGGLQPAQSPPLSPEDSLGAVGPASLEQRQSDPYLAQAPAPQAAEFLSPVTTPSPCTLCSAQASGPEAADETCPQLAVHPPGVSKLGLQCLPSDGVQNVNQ
Assay: [32P] 2’3’-cGAMP uptake and competition uptake assay in THP-1 cells
Details: IC50, competition of [32P] 2’3’-cGAMP uptake, THP-1 cells; varying concentrations of competing, unlabeled ligand; 1 nM [32P] 2’3’-cGAMP
pIC50: −log10 of the molar value.
attribute-measured: pIC50

compound="CN1c2c(nc(N)[nH]c2=O)NCC1CNc1ccc(C(=O)N[C@@H](CCC(=O)O)C(=O)O)cc1 (stereo partly shown) [5-me-THF, 5-methyl-tetrahydrofolic acid]" recorded_number=8.39
